Reference for the values: patent US12116356B2

Reported IC50 values, CYP 2D6 (Homo sapiens (Human)).
Unit µM implied. Number only.

> print(dat)
                                   molecule  scale.unit  reported.measurement
1  Cc1c(C(=O)Nc2ccc(F)c(C#N)c2)c(C)n(C)c1C(=O)C(=O)NC1(C(F)(F)F)COC1 [Example 25]          µM                   120

Below: the item to evaluate.
Note IC50 for the molecule shown: Cc1c(C(=O)Nc2ccc(F)c(C#N)c2)c(C)n(C)c1C(=O)C(=O)N[C@@H](C)C(F)(F)F [Example 12] 224

---

# assay overview: In vivo pharmacokinetics (PK) study in rats
# Set-up: species or system SD rats
# reported conditions: SD, rat, in vivo, iv, 5 mg/kg
measured metric: half-life (min)
Unit min implied. Number only.

Note half-life for the compound shown: Cc1c(C(=O)Nc2ccc(F)c(C#N)c2)c(C)n(C)c1C(=O)C(=O)N[C@@H](C)C(F)(F)F [Example 12] 205
